Target chain: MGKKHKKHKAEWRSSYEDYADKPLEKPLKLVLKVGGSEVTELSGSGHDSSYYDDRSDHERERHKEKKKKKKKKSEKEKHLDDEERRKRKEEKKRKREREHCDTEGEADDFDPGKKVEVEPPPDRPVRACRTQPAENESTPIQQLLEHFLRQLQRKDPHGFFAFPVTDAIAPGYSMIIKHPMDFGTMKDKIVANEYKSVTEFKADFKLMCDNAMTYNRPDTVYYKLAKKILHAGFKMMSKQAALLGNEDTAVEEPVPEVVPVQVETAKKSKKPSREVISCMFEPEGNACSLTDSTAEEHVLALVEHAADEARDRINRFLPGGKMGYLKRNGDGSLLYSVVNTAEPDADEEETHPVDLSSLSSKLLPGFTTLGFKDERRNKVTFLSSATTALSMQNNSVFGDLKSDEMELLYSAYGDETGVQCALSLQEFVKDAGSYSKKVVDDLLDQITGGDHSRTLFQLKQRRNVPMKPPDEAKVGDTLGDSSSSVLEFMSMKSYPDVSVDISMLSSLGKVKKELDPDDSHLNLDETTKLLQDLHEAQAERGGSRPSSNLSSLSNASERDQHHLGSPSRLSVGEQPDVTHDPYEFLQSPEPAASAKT
As shown below, each of these molecules has a reported pIC50 value.
Expect pIC50 as a plain number equal to -log10 of the molar concentration.

COc1cc2nc(-c3cc(C)oc3C)cc(NCC3CCN(c4ncc(C(=O)NO)cn4)CC3)c2cc1OC [CM-1758]	4.44

Turning to the following molecule.
INPUT: Would you kindly share the measured pIC50 for COc1cc2nc(-c3ccc(C)o3)cc(NCC3CCN(c4ncc(C(=O)NO)cn4)CC3)c2cc1OC [CM-444] ?
OUTPUT: 4.89

Cited source: paper PMC11219871
